# TARGET_SYSTEM: HLA-A*23:01
# TEST: IEDB peptide-MHC binding, purified MHC/direct/fluorescence; filed as Kd, often an IC50 or EC50 that approximates it; bounds were set here for any values at or beyond the usual limits of such assays
# CONDITION: source organism: Lyssavirus rabies
pKd: −log10 of the molar value.
PARAMETER: pKd

Need pKd, item "YLDNVGVHI"
≤ 4.70

----------
# TARGET_SYSTEM: HLA-A*11:01
# TEST: IEDB peptide-MHC binding, purified MHC/competitive/radioactivity; filed as Kd, often an IC50 or EC50 that approximates it; bounds were set here for any values at or beyond the usual limits of such assays
# CONDITION: source organism: Mammarenavirus juninense
PARAMETER: pKd
Please express pKd as -log10 of the molar concentration.

Report pKd for "AVAKCNLNH" please.
6.64

----------
# TARGET_SYSTEM: HLA-A*03:01
# TEST: IEDB peptide-MHC binding, purified MHC/competitive/fluorescence; filed as Kd, often an IC50 or EC50 that approximates it; bounds were set here for any values at or beyond the usual limits of such assays
# CONDITION: source organism: Orthohantavirus negraense
PARAMETER: Kd (nM)
Response body: numeric value in nM, unit text excluded.

// query Kd value for entry "SLLFREVWK"
37.4

----------
# TARGET_SYSTEM: HLA-A*02:01
# TEST: IEDB peptide-MHC binding, purified MHC/competitive/fluorescence; filed as Kd, often an IC50 or EC50 that approximates it; bounds were set here for any values at or beyond the usual limits of such assays
# CONDITION: source organism: Escherichia coli ATCC 8739
PARAMETER: Kd (nM)
Lab book: enter the figure in nM, no units written.

Request - read-out Kd | tested on HLA-A*02:01 | sequence "GLLDWGMQQ"
119

----------
# TARGET_SYSTEM: HLA-A*02:19
# TEST: IEDB peptide-MHC binding, purified MHC/direct/fluorescence; filed as Kd, often an IC50 or EC50 that approximates it; bounds were set here for any values at or beyond the usual limits of such assays
# CONDITION: source organism: Choclo virus
pKd: −log10 of the molar value.
PARAMETER: pKd

Tell me the measured pKd of "GSFRKICGF" , please.
≤ 4.70

----------
# TARGET_SYSTEM: HLA-A*26:01
# TEST: IEDB peptide-MHC binding, purified MHC/competitive/fluorescence; filed as Kd, often an IC50 or EC50 that approximates it; bounds were set here for any values at or beyond the usual limits of such assays
# CONDITION: source organism: Homo sapiens
pKd: −log10 of the molar value.
PARAMETER: pKd

Requested read-out: pKd. Entry: "HLLCQAFSV"
≤ 4.70

----------
# TARGET_SYSTEM: HLA-B*46:01
# TEST: IEDB peptide-MHC binding, purified MHC/competitive/fluorescence; filed as Kd, often an IC50 or EC50 that approximates it; bounds were set here for any values at or beyond the usual limits of such assays
# CONDITION: source organism: Giardia lamblia ATCC 50803
PARAMETER: Kd (nM)
Give the number; nM is assumed, so skip it.

Request the reported Kd associated with "MARPADASM"
2200

----------
# Kd per entry
# TARGET_SYSTEM: HLA-B*15:42
# TEST: IEDB peptide-MHC binding, purified MHC/competitive/fluorescence; filed as Kd, often an IC50 or EC50 that approximates it; bounds were set here for any values at or beyond the usual limits of such assays
# CONDITION: source organism: Mycobacterium tuberculosis variant bovis BCG str. Pasteur 1173P2

AIYDTMQYV = ≥ 5 µM

For the next question, use this sequence.
Recorded Kd for "KPIPHRTVL" , please?
≥ 5 µM
